// values below are reported viability
# Test: SK-BR-3 cell growth inhibitors, pilot screen, 24 h, human (AID 572);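 further: compound exposure lasted between 18 and 24 h rather than exactly 24 h; 100% = carrier-treated control wells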
# Run conditions: SK-BR-3 viability, CellTiter-Glo luminescence, at 10 µM, stronger effect = lower value
Parameter: viability (%)

{"columns": ["Entry smiles", "Unit name", "Reported value"],
 "data": [
  ["O=C(NCc1ccco1)Nc1ccc2nsnc2c1", "%", 104],
  ["Cn1cccc1-c1nc2ccc(NC(=O)c3ccco3)cc2[nH]1", "%", 114],
  ["CN(C)C(=O)COc1ccc2cc(-c3ccccc3)c(=O)oc2c1", "%", 93],
  ["Cc1cn2c(-c3ccncc3)nnc2s1", "%", 144],
  ["Oc1ccc(/C=C/c2cc(O)cc(O)c2)cc1", "%", 115],
  ["Cc1ccc(NC(=O)CSc2nnc(CCCCCNC(=O)OC(C)(C)C)o2)c(C)c1", "%", 112],
  ["CCCCNC(=O)CSc1nc2ccc(N3CCOCC3)cc2c(=O)n1CCc1ccccc1", "%", 95.5],
  ["COCCCn1c(SCC(=O)N2CCc3ccccc32)nnc1-c1ccoc1C", "%", 108],
  ["O=C(Nc1ccc2[nH]c3c(c2c1)CCCC3)c1ccco1", "%", 82],
  ["CC(=O)SCCC(=O)Nc1ccccc1", "%", 88],
  ["NC(=O)OCC(COC(N)=O)c1ccccc1", "%", 132],
  ["Cc1cc(NCCN2CCOCC2)n2nc(C)c(-c3ccccc3)c2n1", "%", 102]
]}

----------
# Test: 384-well plate pilot, post-Golgi transport modulator project, inhibition of yeast transport mutant growth (AID 636)
# Run conditions: absorbance 615 nm, about 18 h, stronger effect = higher value

{"columns": ["Compound", "inhibition [%]"],
 "data": [
  ["CC[C@H](C)C(=O)O[C@H]1C[C@@H](C)C=C2C=C[C@H](C)[C@H](CC[C@@H]3C[C@@H](O)CC(=O)O3)[C@H]21", -1.82],
  ["CC1CN(CC(O)COc2ccc(C(C)C)cc2)CC(C)O1 (stereo not given)", 18.6],
  ["CC(C)(C)NC(=O)C(Cc1ccccc1)NS(=O)(=O)c1cccc2nsnc12 (stereo not given)", -9.86],
  ["CCOc1ccc(N2CC(C(=O)NCCc3ccc(OC)c(OC)c3)CC2=O)cc1 (stereo not given)", -11],
  ["O=S(=O)(c1cccc2c(S(=O)(=O)N3CCCC3)cccc12)N1CCCC1", -9.18],
  ["Cc1cc(Cn2ccnc2)c(C)cc1Cn1ccnc1", -3.6],
  ["COc1cccc(-n2c(CNc3ccc(F)cc3)nnc2SCC(N)=O)c1", -4.67],
  ["COc1ccc(N2CCN(C(=O)CCNS(=O)(=O)c3ccc(Br)s3)CC2)cc1", -4.55],
  ["CCOc1ccc(-c2cc(C(=O)N3CCN(c4ccccn4)CC3)c3ccccc3n2)cc1", 0.13],
  ["Cc1ccc(O)c(C(=O)c2cc(C#N)c(=O)n(CC3CCCO3)c2)c1 (stereo not given)", -1.3]
]}

----------
# Test: growth inhibitors of H69AR lung tumor, primary screen, human, duplicate replicates (AID 580);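 further: 100% = mean luminescence of untreated wells and 0% = no signal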
# Run conditions: H69AR lung tumor cells viability, ATP luminescence, 72 h; at 10 µM; stronger effect = lower value
Peptide text beside a SMILES is read from it. * marks the point of attachment. Boc = CC(C)(C)OC(=O)*
Field 'label' (enum: 1.0 / 0.0). Set to 1.0 when viability is strictly under 90%; else 0.0.

{"columns": ["Compound", "Label"],
 "data": [
  ["Cc1ccc(S(=O)(=O)N2CCCC(c3nnc4n3-c3ccccc3SC4)C2)cc1 (stereo not given)", 1.0],
  ["CN(CC(=O)Nc1sccc1C#N)C1CCCCC1", 0.0],
  ["Cn1c(=O)cc(OCC(=O)NCCCN2CCN(Cc3ccccc3)CC2)c2ccccc21", 0.0],
  ["CSc1oc(-c2ccccc2)nc1S(=O)(=O)c1ccc(F)cc1", 1.0],
  ["CN(CCNC(=O)c1ccc(N2CCCC2=O)cc1)CCc1ccccc1", 0.0],
  ["COC(=O)C1=CN(C)C=C(C(=O)OC)C1c1ccc(O)c(OC)c1", 0.0],
  ["CCC(C)C(NC(=O)OC(C)(C)C)C(=O)NC(CC(C)C)C(N)=O (stereo not drawn) (Boc-Ile-Leu-NH2; configuration not given here)", 0.0],
  ["CCOc1ccc(S(=O)(=O)N(C)C)cc1-c1nc2c(C(C)(C)C)nn(C)c2c(=O)[nH]1", 1.0]
]}

----------
# Test: reducers of endogenous Her2 protein level, primary screen, SKBR3 breast tumor cells, AlphaScreen, ATP viability (AID 461);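 further: percent of carrier control wells set as 100% viability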
# Run conditions: 18-24 h, measured here: SKBR3 viability, ATP luminescence, at 10 µM
Field 'label' (enum: Fulfilled / Not fulfilled). Set to Fulfilled when viability is strictly under 90%; else Not fulfilled.

{"columns": ["Compound", "Label"],
 "data": [
  ["CCOC(=O)c1c(C)oc2c1c1c(c3ccccc32)OCN(Cc2cccnc2)C1", "Fulfilled"],
  ["Brc1ccc(C2=Nn3c(nnc3-c3ccncc3)SC2)cc1", "Not fulfilled"],
  ["Cc1nnc(N(C)C(=O)c2cccnc2)s1", "Not fulfilled"],
  ["Cc1cc(C)c2oc(=O)cc(CN3CCOCC3)c2c1", "Not fulfilled"],
  ["CCCCn1c(CN(C)Cc2ccccc2)nc2c1c(=O)n(C)c(=O)n2C", "Fulfilled"],
  ["COc1ccc(N2C(=O)C3C4C=CC(C4)C3C2=O)nn1 (stereo unspecified)", "Not fulfilled"]
]}

----------
# Test: reversal of MRP1-mediated doxorubicin resistance, pilot screen, H69AR cells, doxorubicin co-treatment (AID 601)
# Run conditions: H69AR cells + 2 uM doxorubicin, CellTiter-Glo, 72 h; measured here: viability with 2 uM doxorubicin; at 10 µM; stronger effect = lower value
Parameter: viability

{"columns": ["Molecule", "Parameter", "Reported value"],
 "data": [
  ["O=c1/c(=C/c2ccco2)sc2nc(-c3ccccc3Br)nn12", "viability", "87.9%"],
  ["O=C(CSc1nc2ccccc2nc1SCC(=O)N1CCOCC1)N1CCOCC1", "viability", "94.5%"],
  ["COc1ccccc1NC(=O)CC(NCc1ccccc1)C(=O)O (stereo unspecified)", "viability", "91.2%"],
  ["COc1ccc(C(=O)Nc2ccc(S(=O)(=O)Nc3nccnc3OC)cc2)cc1OC", "viability", "88.6%"],
  ["Nc1nc(-c2ccc(Cl)cc2)cc(C(F)(F)F)n1", "viability", "91.3%"],
  ["c1ccc(Cn2nnnc2CN2CCCC2)cc1", "viability", "96.5%"]
]}

----------
# Test: reducers of endogenous Her2 protein level, primary screen, SKBR3 breast tumor cells, AlphaScreen, ATP viability (AID 461);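 further: percent of carrier control wells set as 100% viability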
# Run conditions: 18-24 h, measured here: SKBR3 viability, ATP luminescence, at 10 µM
Field 'label' (enum: TRUE / FALSE). Set to TRUE when viability is strictly under 90%; else FALSE.

{"columns": ["Molecule", "Label"],
 "data": [
  ["CCOc1ccccc1C(=O)NCC(=O)OCC(=O)N1C(C)CCCC1C (stereo not given)", "FALSE"],
  ["COCCCNC(=O)CSc1nc2ccc(N3CCOCC3)cc2c(=O)n1CCc1ccccc1", "FALSE"],
  ["COc1cccc(-c2cc3nc4c(c(N5CCC6(CC5)OCCO6)n3n2)CCCC4)c1", "FALSE"],
  ["CCOC(=O)c1cccc(NC(=O)CSc2nc3cccnc3n2C)c1", "TRUE"]
]}

----------
# Test: growth suppression of yeast trafficking mutant, preliminary HTS, modulators of trafficking downstream of Golgi apparatus project, 1536-format plate, OD 615 nm (AID 637)
# Run conditions: yeast transport mutant growth, absorbance 615 nm, 18 h; stronger effect = higher value
// values below are reported inhibition

{"columns": ["Molecule", "inhibition / %"],
 "data": [
  ["CCOC(=O)c1cc2sc(C)cc2n1CC(=O)Nc1cccc(C)c1C", -5.82],
  ["CC(=O)SCC(=O)N=c1sc2cc(F)ccc2n1C", 7.78],
  ["Cc1ccc(S(=O)(=O)N2CCCC(c3nnc4n3-c3ccccc3SC4)C2)cc1 (stereo not drawn)", 4.92],
  ["COc1ccc(-c2nnc(-c3ccc(N)cc3)o2)cc1", 3.81],
  ["CCOC(=O)n1c(SCC(=O)N(CC)CC)nc2ccccc21", 1.11],
  ["Cc1cccc(-n2c(N)c(C(=O)N3CCN(C)CC3)sc2=S)c1", -7.3],
  ["COc1ccc(Cn2c(N)c(C#N)c3nc4ccccc4nc32)cc1OC", 0.48],
  ["CCN1CCN(Cc2nc3c(c(=O)[nH]c(=O)n3C)n2Cc2ccccc2Cl)CC1", -3.17],
  ["CCOC(=O)C1CSc2[nH]c(=O)sc2C1c1ccccc1 (stereo not drawn)", -2],
  ["Fc1ccccc1Cn1nnc2c(-n3ccnc3)ncnc21", -3.71],
  ["CSc1nnc(-c2cnccn2)n1C", 4.92],
  ["O=C(Nc1ccc2c(c1)OCO2)c1ccc(Br)c(S(=O)(=O)N2CCCC2)c1", -0.16],
  ["Cc1cc(C(=O)Nc2ccc(S(=O)(=O)Nc3onc(C)c3C)cc2)cs1", 0],
  ["CCOC(=O)c1sc2cccc(F)c2c1N", 6.07],
  ["Nc1nc(CSc2nc3ccccc3[nH]2)nc(N2CCOCC2)n1", -3.83],
  ["O=C(C1=C(O)C(=O)N(c2ncccn2)C1c1cccc(Cl)c1)c1ccco1 (stereo not drawn)", 1.29],
  ["Cc1csc(SCCn2c(N3CCCC3)nc3c2c(=O)[nH]c(=O)n3C)n1", -2.55],
  ["CCCCC(=O)Nc1ccc(NC(=O)C2CC2)nc1", -1.13],
  ["COC(=O)Nc1ccc(S(=O)(=O)N2CCCCCC2)cc1", -2],
  ["CCCCn1c(CN2CCN(CCO)CC2)nc2ccccc21", -6.55],
  ["CC(=O)c1ccc(NC(=O)c2cc(CC(C)C)on2)cc1", -8.67],
  ["CC1(C)CC(=O)C2=C(C1)N(Cc1ccco1)C(=O)C2(NC(=O)C1CCCCC1)C(F)(F)F (stereo not drawn)", 5.56],
  ["COc1cccc(S(=O)(=O)Nc2ccc(C(=O)N3CCN(C(=O)c4ccco4)CC3)cc2)c1", -0.97]
]}
